Entry source: patent US11076595B2

# Test system: Echinochloa crus-galli
# assayNotes: Test Example 12: herbicidal effect test by treatment during growing period in paddy field
# Assay type: in vivo
# experimentalParameters: 120 g/10a; treatment seven days after sowing in flooded paddy pot; assessed 14 days after treatment
The reader will find reported Weed suppression rate (%) Echinochloa crus-galli values listed item by item below.
Answer format: numeric, % implied, no suffix.

CC(C)N(C(=O)n1cnn(S(=O)(=O)C2CCOCC2)c1=O)c1ccc(F)cc1F [Compound 11-1109]	90
CC(C)N(C(=O)n1cnn(S(=O)(=O)C2CC2)c1=O)c1ccccc1F [Compound 11-160]	100
CC(C)N(C(=O)n1cnn(S(=O)(=O)C2CCCCC2)c1=O)c1ccc(Br)cc1Cl [Compound 11-305]	100
Cc1ccc(N(C(=O)n2cnn(S(C)(=O)=O)c2=O)C(C)C)c(F)c1 [Compound 11-26]	90
CC(C)N(C(=O)n1cnn(S(=O)(=O)c2ccccc2Cl)c1=O)c1ccc(F)cc1Cl [Compound 11-519]	80

Reading of Weed suppression rate (%) Echinochloa crus-galli for CC(C)N(C(=O)n1cnn(S(=O)(=O)C2CC2)c1=O)c1ccc(Cl)nc1Cl [Compound 11-238] with Echinochloa crus-galli: 100

Reading of Weed suppression rate (%) Echinochloa crus-galli for Cc1cc(N(C(=O)n2cnn(S(=O)(=O)C(C)C)c2=O)C(C)C)no1 [Compound 11-91] with Echinochloa crus-galli: 90

Reading of Weed suppression rate (%) Echinochloa crus-galli for CC(C)N(C(=O)n1cnn(S(=O)(=O)C2CCCCC2)c1=O)c1ccc(Cl)cc1Br [Compound 11-306] with Echinochloa crus-galli: 90

Reading of Weed suppression rate (%) Echinochloa crus-galli for CC(C)N(C(=O)n1cnn(S(C)(=O)=O)c1=O)c1cccc(F)c1F [Compound 11-11] with Echinochloa crus-galli: 100

Reading of Weed suppression rate (%) Echinochloa crus-galli for CC(C)N(C(=O)n1cnn(S(=O)(=O)C2CCCCC2)c1=O)c1ccc(C(F)(F)F)cc1Cl [Compound 11-314] with Echinochloa crus-galli: 90

Reading of Weed suppression rate (%) Echinochloa crus-galli for CCN(CC)C(=O)n1cnn(S(=O)(=O)c2ccccc2C(F)(F)F)c1=O [Compound 11-710] with Echinochloa crus-galli: 80

----------
# Tested on: Echinochloa crus-galli
# assayNotes: Test Example 12: herbicidal effect test by treatment during growing period in paddy field
# Assay type: in vivo
# experimentalParameters: 120 g/10a; treatment seven days after sowing in flooded paddy pot; assessed 14 days after treatment
resultType: Weed suppression rate (%) Echinochloa crus-galli
Answer format: numeric, % implied, no suffix.

CC(C)N(C(=O)n1cnn(S(=O)(=O)C2CCCC2)c1=O)c1ccc(F)cc1F	100
CC(C)N(C(=O)n1cnn(S(=O)(=O)C2CCCCC2)c1=O)c1ccccc1F	100
CC(C)N(C(=O)n1cnn(S(=O)(=O)c2ccc(F)cc2)c1=O)c1ccc(F)cc1Cl	90
CC(C)N(C(=O)n1cnn(S(=O)(=O)c2ccc(F)cc2)c1=O)c1ccccc1	90
CC(C)N(C(=O)n1cnn(S(=O)(=O)c2ccc(F)cc2)c1=O)c1c(F)cc(F)cc1F	100
Cc1ccc(S(=O)(=O)n2ncn(C(=O)N(c3ccc(F)c(F)c3F)C(C)C)c2=O)cc1	80
CC(C)N(C(=O)n1cnn(S(=O)(=O)N(C)C)c1=O)c1ccc(Cl)cc1Br	90
CC(C)N(C(=O)n1cnn(S(=O)(=O)c2ccccc2)c1=O)c1ccc(F)cc1	90
Cc1ccc(S(=O)(=O)n2ncn(C(=O)N(c3ccc(Br)cc3Cl)C(C)C)c2=O)cc1	60
CC(C)N(C(=O)n1cnn(S(=O)(=O)C(C)C)c1=O)c1ccc(Br)cc1Cl	100

For record `Cc1cc(C)c(S(=O)(=O)n2ncn(C(=O)N(c3ccccc3F)C(C)C)c2=O)c(C)c1` the listed Weed suppression rate (%) Echinochloa crus-galli is 90

For record `CCN(CC)C(=O)n1cnn(S(=O)(=O)c2ccccc2Cl)c1=O` the listed Weed suppression rate (%) Echinochloa crus-galli is 80

For record `CC(C)N(C(=O)n1cnn(S(=O)(=O)C(C)C)c1=O)c1ccc(F)cc1Cl` the listed Weed suppression rate (%) Echinochloa crus-galli is 90

For record `Cc1ccc(S(=O)(=O)n2ncn(C(=O)N(c3ccc(Cl)cc3F)C(C)C)c2=O)cc1` the listed Weed suppression rate (%) Echinochloa crus-galli is 60

For record `CC(C)N(C(=O)n1cnn(S(=O)(=O)C(C)C)c1=O)c1ccc(Cl)cc1Br` the listed Weed suppression rate (%) Echinochloa crus-galli is 100
